- method.notes: LogP by HPLC on reversed phase columns (EEC directive 79/831 Annex V.A8)
- Format: physicochemical
- recorded.conditions: reversed phase HPLC column, pH 2.7, 0.1% formic acid in water / acetonitrile gradient
test.readout: chromatographic logP
Respond using a number only.

Dear colleague, I am looking for the recorded chromatographic logP of the following compound: CC(=CC(=O)Nc1cccc(CON=C(c2ccccc2)c2nnnn2C)n1)C1CC1
3.48

###

- method.notes: LogP by HPLC on reversed phase columns (EEC directive 79/831 Annex V.A8)
- Format: physicochemical
- recorded.conditions: pH 2.7, 0.1% formic acid in water / acetonitrile gradient
- Experimental: Measurement of Iog P values was performed according EEC directive 79/831 Annex V.A8 by HPLC (High Performance Liquid Chromatography) on reversed phase columns with the following method: Measurement of LC-MS was done at pH 2.7 with 0.1% formic acid in water and with acetonitrile (contains 0.1% formic acid) as eluent with a linear gradient from 10% acetonitrle to 95% acetonitrile. […]
Decision: LogP >= 4 yields TRUE, all other cases yield FALSE.

Hello, I need to know if Cn1nnnc1C(=NOCc1csc(NC(=O)C=C(C2CC2)C2CC2)n1)c1ccccc1 [Example 23] has measured LogP not below 4. Thanks!
FALSE

Input CC(C)=CC(=O)Nc1nc(CON=C(c2ccccc2)c2nnnn2C)cs1 [Example 28]
FALSE

Input CC(=CC(=O)Nc1cccc(CON=C(c2ccccc2)c2nnnn2C)n1)C1CC1 [Example 3]
FALSE

Input Cn1nnnc1C(=NOCc1cccc(NC(=O)C=CC2CCCCC2)n1)c1ccccc1 [Example 6]
TRUE

Input CC(=CC(=O)Nc1nc(CON=C(c2ccccc2)c2nnnn2C)cs1)C1CCCCC1 [Example 21]
TRUE

Input Cn1nnnc1C(=NOCc1csc(NC(=O)C=CC2CCCCC2)n1)c1ccccc1 [Example 29]
FALSE

Input Cc1nnnn1C(=NOCc1csc(NC(=O)C=C(c2ccccc2)C2CC2)n1)c1ccccc1 [Example 9]
TRUE

Input Cn1nnnc1C(=NOCc1csc(NC(=O)C=C(c2ccccc2)C2CC2)n1)c1ccccc1 [Example 22]
TRUE

Input CC(=CC(=O)Nc1nc(CON=C(c2ccccc2)c2nnnn2C)cs1)C1CCCCC1 [Example 20]
TRUE

Input Cc1nnnn1C(=NOCc1csc(NC(=O)C=CC2CC2)n1)c1ccccc1 [Example 13]
FALSE

Input Cc1nnnn1C(=NOCc1csc(NC(=O)C=C(C2CC2)C2CC2)n1)c1ccccc1 [Example 15]
FALSE

Input CC(=CC(=O)Nc1cccc(CON=C(c2ccccc2)c2nnnn2C)n1)C1CC1 [Example 2]
FALSE

Input Cn1nnnc1C(=NOCc1csc(NC(=O)C=C(c2ccccc2)C2CC2)n1)c1ccccc1 [Example 30]
FALSE

Input Cc1nnnn1C(=NOCc1csc(NC(=O)C=CC2CCCCC2)n1)c1ccccc1 [Example 16]
FALSE

Input CC(=CC(=O)Nc1cccc(CON=C(c2ccccc2)n2nnnc2C)n1)C1CC1 (mixture of isomers) [Example 31]
FALSE

Input CC(C)=CC(=O)Nc1nc(CON=C(c2ccccc2)n2nnnc2C)cs1 [Example 12]
FALSE

The measured values listed here are drawn from patent US20140005230A1.
